# STUDY_SYSTEM: hA1 (Homo sapiens (Human), UniProt P30542)
# Sequence (P30542 whole entry): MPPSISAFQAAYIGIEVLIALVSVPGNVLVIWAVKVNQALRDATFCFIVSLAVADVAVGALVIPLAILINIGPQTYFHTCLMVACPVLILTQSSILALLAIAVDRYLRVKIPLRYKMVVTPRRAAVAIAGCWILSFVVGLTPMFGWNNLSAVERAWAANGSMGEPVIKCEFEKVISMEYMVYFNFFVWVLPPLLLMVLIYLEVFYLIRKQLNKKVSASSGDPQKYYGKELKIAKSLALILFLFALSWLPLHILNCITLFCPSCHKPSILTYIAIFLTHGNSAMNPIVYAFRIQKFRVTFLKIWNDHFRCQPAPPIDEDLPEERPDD
# ASSAY_PROTOCOL: FLIPR inhibition assay in hADORA1/CHO (hA1 expressing) cells
# Assay type: cell-based
# CONDITION_PARAMETERS: hADORA1/CHO cells, FLIPR calcium, adenosine stimulation; read-out: cAMP & FLIPR IC50 (nM) hA1
Response field label takes rule met when IC50 is strictly below 40 nM and rule not met in all other cases.

COMPOUND: CN1CCC[C@@H]1Cc1nc2c(-c3ccc4ncn(C)c4c3)c(-c3ccc(F)cc3)nc(N)n2n1 [Example 104]
DISCRETE_LABEL: rule met
//
COMPOUND: Nc1nc(-c2ccc(F)cc2)c(-c2ccc(=O)n(CCO)c2)c2nc(Cc3c(F)cccc3F)nn12 [Example 65]
DISCRETE_LABEL: rule met
//
COMPOUND: Cn1cc(-c2c(-c3ccc(C#N)cc3)nc(N)n3nc(Cc4ncccc4F)nc23)ccc1=O [Example 57]
DISCRETE_LABEL: rule not met
//
COMPOUND: Cn1cnc2ccc(-c3c(-c4ncco4)nc(N)n4nc(Cc5ncccc5F)nc34)cc21 [Example 90]
DISCRETE_LABEL: rule not met
//
COMPOUND: Nc1nc(-c2ccc(F)cc2)c(-c2ccc(=O)n(C3CCOC3)c2)c2nc(Cc3c(F)cccc3F)nn12 (stereo not shown) [Example 23]
DISCRETE_LABEL: rule met
//
COMPOUND: Cn1cc(-c2c(-n3cccn3)nc(N)n3nc(Cc4ncccc4F)nc23)ccc1=O [Example 63]
DISCRETE_LABEL: rule not met
//
COMPOUND: Cc1cnc2ccc(-c3c(-n4cc(F)cn4)nc(N)n4nc(Cc5ncccc5F)nc34)cn12 [Example 117]
DISCRETE_LABEL: rule met
//
COMPOUND: CNc1cc(-c2c(-c3ccc(F)cc3)nc(N)n3nc(Cc4ncccc4F)nc23)ccn1 [Example 43]
DISCRETE_LABEL: rule met
//
COMPOUND: COc1ccc(-c2nc(N)n3nc(Cc4ncccc4F)nc3c2-c2ccc(=O)n(C)c2)cc1 [Example 61]
DISCRETE_LABEL: rule met
//
COMPOUND: Cc1cc(-c2c(-c3ncco3)nc(N)n3nc(Cc4c(F)cccc4F)nc23)cc(C#N)n1 [Example 83]
DISCRETE_LABEL: rule not met
//
COMPOUND: Cc1cc(-c2c(-c3ncco3)nc(N)n3nc(Cc4ncccc4F)nc23)cc(Cl)n1 [Example 82]
DISCRETE_LABEL: rule not met
//
COMPOUND: CC(C)n1cc(-c2c(-c3ncco3)nc(N)n3nc(Cc4ncccc4F)nc23)ccc1=O [Example 80]
DISCRETE_LABEL: rule met
//
COMPOUND: Cn1cc(-c2c(-n3nccn3)nc(N)n3nc(Cc4c(F)cccc4F)nc23)ccc1=O [Example 25]
DISCRETE_LABEL: rule met
//
COMPOUND: Cc1cc(-c2c(-c3ccc(F)cc3)nc(N)n3nc(Cc4cccc(Cl)c4)nc23)ccn1 [Example 8]
DISCRETE_LABEL: rule not met
//
COMPOUND: Cn1cc(-c2c(-c3ccc(F)c(F)c3)nc(N)n3nc(Cc4ncccc4F)nc23)ccc1=O [Example 39]
DISCRETE_LABEL: rule met
//
COMPOUND: Cc1cnc2ccc(-c3c(-c4ccc(F)cc4)nc(N)n4nc(C[C@@H]5CCCN5C)nc34)cn12 [Example 122]
DISCRETE_LABEL: rule not met
//
COMPOUND: Cc1cnc2ccc(-c3c(N4CCCC4)nc(N)n4nc(Cc5c(F)cccc5F)nc34)cn12 [Example 123]
DISCRETE_LABEL: rule not met
//
COMPOUND: CC(C)n1cc(-c2c(-c3ccc(F)cc3)nc(N)n3nc(Cc4ncccc4F)nc23)ccc1=O [Example 55]
DISCRETE_LABEL: rule met
//
COMPOUND: Cc1cnc2ccc(-c3c(N4CCOC(C)C4)nc(N)n4nc(Cc5ncccc5F)nc34)cn12 (single isomer, unassigned; isomer 1) [Example 112-1]
DISCRETE_LABEL: rule not met
//
COMPOUND: Cn1cc(-c2c(-c3nccs3)nc(N)n3nc(Cc4c(F)cccc4F)nc23)ccc1=O [Example 44]
DISCRETE_LABEL: rule met
//
COMPOUND: Cc1cc(-c2c(-c3ccc(F)cc3)nc(N)n3nc(Cc4ncccc4F)nc23)ccn1 [Example 2]
DISCRETE_LABEL: rule met
//
COMPOUND: Nc1nc(-c2ccc(F)cc2)c(-c2ccc3nc[nH]c3c2)c2nc(Cc3ncccc3F)nn12 [Example 75]
DISCRETE_LABEL: rule met
//
COMPOUND: Cc1cnc2ccc(-c3c(N4CCC4)nc(N)n4nc(Cc5c(F)cccc5F)nc34)cn12 [Example 124]
DISCRETE_LABEL: rule met
//
COMPOUND: Cc1cc(-c2c(-c3ccc(F)cc3)nc(N)n3nc(Cc4ncccc4F)nc23)cc(Cl)n1 [Example 18]
DISCRETE_LABEL: rule not met
//
COMPOUND: Cc1cnc2ccc(-c3c(-c4ncco4)nc(N)n4nc(CC5CCOC5)nc34)cn12 (single isomer, unassigned) [Example 107-1]
DISCRETE_LABEL: rule not met
//
COMPOUND: Nc1nc(-c2ccc(F)cc2)c(-c2ccc3nccn3c2)c2nc(Cc3ncccc3F)nn12 [Example 32]
DISCRETE_LABEL: rule met
//
COMPOUND: Cc1cnc2ccc(-c3c(N4CCCC4)nc(N)n4nc(Cc5ncccc5F)nc34)cn12 [Example 101]
DISCRETE_LABEL: rule met
//
COMPOUND: Nc1nc(-c2ccc(F)cc2)c(-c2ccnc(Cl)c2)c2nc(Cc3ncccc3F)nn12 [Example 3]
DISCRETE_LABEL: rule not met
//
COMPOUND: Cc1c(-c2c(-c3ccc(F)cc3)nc(N)n3nc(Cc4ncccc4F)nc23)ccc(=O)n1C [Example 66]
DISCRETE_LABEL: rule not met
//
COMPOUND: Cc1cnc2ccc(-c3c(-c4ncco4)nc(N)n4nc(CC5CCCO5)nc34)cn12 (single isomer, unassigned) [Example 106-1]
DISCRETE_LABEL: rule not met
